meta.source: PubChem BioAssay AID743319

target: Endoplasmic reticulum aminopeptidase 2 (Homo sapiens) (UniProt Q6P179); assay: ERAP2 activation by compounds, dose response, selectivity assay for selective ERAP1 modulator project, biochemical, fluorescence plate reader, cherry-picked samples (AID 743319); conditions: recombinant ERAP2, Arg-AMC cleavage fluorescence, 1 h
Sequence (Q6P179 whole entry, looked up): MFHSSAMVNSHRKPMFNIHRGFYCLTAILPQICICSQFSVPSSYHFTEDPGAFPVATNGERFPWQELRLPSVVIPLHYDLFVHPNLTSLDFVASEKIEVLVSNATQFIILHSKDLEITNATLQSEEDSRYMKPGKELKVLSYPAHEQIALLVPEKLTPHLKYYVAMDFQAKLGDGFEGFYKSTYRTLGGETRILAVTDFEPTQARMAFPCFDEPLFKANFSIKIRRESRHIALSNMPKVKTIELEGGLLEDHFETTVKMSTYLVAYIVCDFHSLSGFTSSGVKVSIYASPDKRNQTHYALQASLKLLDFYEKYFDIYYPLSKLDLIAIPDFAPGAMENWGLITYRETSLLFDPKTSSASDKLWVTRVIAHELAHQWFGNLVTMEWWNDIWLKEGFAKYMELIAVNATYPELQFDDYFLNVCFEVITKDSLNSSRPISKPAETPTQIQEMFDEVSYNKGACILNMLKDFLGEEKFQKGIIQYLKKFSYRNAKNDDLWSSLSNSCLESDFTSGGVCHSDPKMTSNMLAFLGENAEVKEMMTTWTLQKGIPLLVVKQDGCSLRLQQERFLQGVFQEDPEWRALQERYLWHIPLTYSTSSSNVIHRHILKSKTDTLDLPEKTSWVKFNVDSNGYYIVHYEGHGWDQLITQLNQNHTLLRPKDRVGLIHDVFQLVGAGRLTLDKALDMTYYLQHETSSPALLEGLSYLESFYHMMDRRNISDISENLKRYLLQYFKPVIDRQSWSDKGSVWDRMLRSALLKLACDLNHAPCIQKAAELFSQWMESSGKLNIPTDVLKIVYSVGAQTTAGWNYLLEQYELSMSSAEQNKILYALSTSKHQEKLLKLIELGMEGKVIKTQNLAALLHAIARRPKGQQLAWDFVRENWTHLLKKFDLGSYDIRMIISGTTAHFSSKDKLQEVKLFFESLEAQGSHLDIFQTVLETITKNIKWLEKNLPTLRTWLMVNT
Calls of active or inactive are those of the source.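 Rule for the calls: active = fitted curve reaches 200% activation at or below the highest valid dose tested for that compound; inconclusive = flat fit between 30 and 70% activation, or unreliable fit; inactive = the rest.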
measurementLabel: AC200

Below, 6 compounds whose answers are already recorded.
COc1ccc(C2=NN(c3ccc(C(=O)O)cc3)C(c3ccc(OC)c(OC)c3)C2)cc1 (stereo not given)    1580 nM
COCC(=O)N1[C@@H]2c3ccc(/C=C/c4ccccc4)c(=O)n3C[C@H]1[C@H](CO)[C@H]2C(=O)N1CCOCC1    1500 nM
Cc1c(CC(=O)N2CCN(C(=O)C3COc4ccccc4O3)CC2)c(=O)oc2cc(O)c(Cl)cc12 (stereo not given)    1520 nM
O=c1ccc2cc(O)c(O)cc2o1    3270 nM
COc1ccc(CNCc2c(O)c(Cl)cc3c(C)c(C)c(=O)oc23)c(OC)c1    1030 nM
CC(=O)N1[C@@H]2c3ccc(/C=C/c4ccccc4)c(=O)n3C[C@H]1[C@H](CO)[C@H]2C(=O)N(C)C    1570 nM

I have this compound here, Cc1cc(=O)oc2c(CN3CCN(CCO)CC3)c(O)ccc12 , and I need its recorded AC200.
3010 nM

Another compound to look at: Cc1c(C)c2ccc(O)c(CN3CCCC3)c2oc1=O
2100 nM

Another compound to look at: O=c1oc2c(CN3CCN(CCO)CC3)c(O)ccc2cc1-c1ccccn1
606 nM

Another compound to look at: Cc1ccc2nc3c(cc(C(=O)NCc4ccccc4)c(=N)n3CCCn3ccnc3)c(=O)n2c1
> 11000 nM (inactive)
